Target: E. coli-derived S. cerevisiae NMT (Total E. coli NMT) (Saccharomyces cerevisiae, UniProt P14743, S2A)
Construct: intact 53 kDa (codon 2 Ser to Ala from cloning) plus 45 kDa truncated form
Sequence (P14743 1-455 S2A): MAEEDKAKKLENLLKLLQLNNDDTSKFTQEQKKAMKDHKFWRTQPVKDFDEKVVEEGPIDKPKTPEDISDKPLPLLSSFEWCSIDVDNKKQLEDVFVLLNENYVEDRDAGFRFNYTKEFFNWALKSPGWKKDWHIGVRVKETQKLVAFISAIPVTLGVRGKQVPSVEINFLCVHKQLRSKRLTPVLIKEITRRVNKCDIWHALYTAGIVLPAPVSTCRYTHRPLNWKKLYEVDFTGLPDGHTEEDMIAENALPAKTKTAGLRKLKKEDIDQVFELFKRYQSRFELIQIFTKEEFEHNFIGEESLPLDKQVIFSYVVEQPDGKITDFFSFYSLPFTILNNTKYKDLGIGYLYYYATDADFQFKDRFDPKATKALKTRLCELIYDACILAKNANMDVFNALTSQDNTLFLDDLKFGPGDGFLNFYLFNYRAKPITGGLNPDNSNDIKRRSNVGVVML
Assay: coupled in vitro assay for NMT activity, Total E. coli NMT
Assay type: biochemical
Conditions: peptide substrate, 15 μM myristate; percentage of Vmax with GNAAAARR and myristoyl-CoA
Collected Vmax, Total E. coli NMT values appear next to each entry.
Kindly answer with a numeric value in %, unit omitted.

A selection of reference data follows.
{"columns": ["entry.sequence", "unit.string", "Vmax, Total E. coli NMT"],
 "data": [
  ["GNAADARR [synthetic octapeptide substrate, one letter amino acid code]", "%", 4.9],
  ["GDAAAARR [synthetic octapeptide substrate, one letter amino acid code]", "%", 4.2],
  ["GSAAAARR [synthetic octapeptide substrate, one letter amino acid code]", "%", 27.6],
  ["GSAASARR [synthetic octapeptide substrate, one letter amino acid code]", "%", 29],
  ["GSSKSKPK [synthetic octapeptide substrate, one letter amino acid code]", "%", 33]
]}

--- query ---
*Q* # get_value(readout='Vmax, Total E. coli NMT', item= GPAAAARR [synthetic octapeptide substrate, one letter amino acid code] )
*A* 21.6
